biological target: human IL-12Rβ1, Acro (BLI analyte) (human, UniProt P42701 24-545); assay: BLI (Octet), antibody on AHC tip
Please respond with reported Kd for every item in the list.
Numeric only. Scale: nM

## Task Consider the binder shown here: DGL551 (bispecific antibody, V domains shown, 195B1 x 185B2) V domain 1: QVQLVESGGGLVQAGGSLRLSCAASGRTFGTYAMGWFRQAPGKERDFVARISNSGAFTHYADSVKGRFTISRDNAKNTVYLHMNSLENGDTAAYYCVATRGTNSAYYTRSTMYEYWGQGTQVTVEP V domain 2: QVQLVESGGGLVQAGGSLRLSCAASGRTFSRYRMGWFRQAPGKEREFVAAITKSGATTYDADSVKGRFTISRDNAKNTLYLQMNSLKPEDTAVYYCAASYHSNWWPKNADEYAYWGQGTQVTVEP What is its recorded Kd?
## Result 10.6

## Task Consider the binder shown here: DGL570 (bispecific antibody, V domains shown, 233B1 x 64B2) V domain 1: QVQLVESGGGLVQAGGSLRLSCAASRSISSFNEMAWYRQAPGEQRELVATIVSTVGFTNYADSVKGRFTISRDNAKNTVYLQMNSLKAEDTAVYYCNARRISTDYWGQGTQVTVEP V domain 2: QVQLVESGGGLVQPGGSLRLSCAASGFTFSSKAMHWFRQAPGKGLEWVSSINSGGAITYYKDSVKGRFTVSRDNAKNILYLEMNSLKPEDTALYYCATDTDGRTRGQGTQVTVEP What is its recorded Kd?
## Result 1.38

## Task Consider the binder shown here: DGL516 (bispecific antibody, V domains shown, 97B1 x 93B2) V domain 1: QVQLVESGGGLAQAGGSLRLSCAASGRTFSNDDMAWFRQAPGKEREFVAHIDRNAASTNYADSVKGRFTISRDNAKNTVYLQMTRLKPEDTAVYYCAADPDHFGTTWYQQYTYWGPGTQVTVEP V domain 2: QVQLVESGGGLVQPGGSLRLSCAASGFTFEPYDMSWFRQAPGKGPEWVSAIDKGGGAGATYYADSVKGRFTISRDNAKKTLYLQMKSLKPEDTAVYYCAITAGPYSDSTPRVAYRGEGTQVTVEP What is its recorded Kd?
## Result 27.3
